Attribution: patent US20240116985A1

Assayed System: full-length beta-Catenin (Uniprot ID P35222) (Homo sapiens, UniProt P35222)
Construct: 10 nM full-length beta-Catenin (Uniprot ID P35222)
Sequence (P35222 whole entry): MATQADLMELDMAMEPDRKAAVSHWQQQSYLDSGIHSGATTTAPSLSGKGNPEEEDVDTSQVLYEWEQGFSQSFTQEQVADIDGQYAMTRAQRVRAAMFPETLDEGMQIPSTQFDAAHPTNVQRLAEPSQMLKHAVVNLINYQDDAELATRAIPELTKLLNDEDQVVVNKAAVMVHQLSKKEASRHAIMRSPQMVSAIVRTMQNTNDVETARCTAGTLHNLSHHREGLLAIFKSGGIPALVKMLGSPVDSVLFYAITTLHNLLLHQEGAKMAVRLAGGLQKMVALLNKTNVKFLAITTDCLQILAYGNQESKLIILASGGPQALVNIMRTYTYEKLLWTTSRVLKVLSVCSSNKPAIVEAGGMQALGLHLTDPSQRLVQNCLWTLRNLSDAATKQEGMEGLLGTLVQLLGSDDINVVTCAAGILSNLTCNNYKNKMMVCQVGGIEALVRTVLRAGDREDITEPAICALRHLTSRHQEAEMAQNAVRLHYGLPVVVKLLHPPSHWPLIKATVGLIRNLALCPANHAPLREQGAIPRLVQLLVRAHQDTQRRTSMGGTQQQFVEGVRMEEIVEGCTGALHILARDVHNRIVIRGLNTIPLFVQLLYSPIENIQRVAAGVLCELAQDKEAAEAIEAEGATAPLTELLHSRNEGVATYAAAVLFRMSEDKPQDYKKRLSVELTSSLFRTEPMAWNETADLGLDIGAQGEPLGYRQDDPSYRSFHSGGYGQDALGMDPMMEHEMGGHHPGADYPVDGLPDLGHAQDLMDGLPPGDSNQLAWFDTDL
Procedure Summary: Fluorescence polarization IC50 (beta-catenin / 5FAM-TCF4 10-53 competition)
Format: binding
Condition Set: fluorescence polarization; read-out: beta-Catenin FP IC50
Recorded pIC50, one value per entry.
Just the number, please; pIC50 means minus log10 of the concentration in mol/L.

INSERT INTO measurements (compound, value) VALUES
  ('CC(=O)N1CCC[C@]12CC=CCCCC1(CCCC=CCCCOC(=O)N3CC[C@@](C(=O)N[C@@H](Cc4ccsc4)C(=O)N[C@@H](Cc4csc5ccccc45)C(=O)N[C@@H](CC(N)=O)C(=O)N[C@@H](CC(C)C)C(N)=O)(C3)NC(=O)[C@H](CC(C)C)NC(=O)[C@H](Cc3ccccc3)NC(=O)[C@H](C)NC(=O)[C@H](C)NC(=O)[C@H](Cc3cccc(C(=O)O)c3)NC(=O)[C@H](CC(=O)O)NC1=O)NC(=O)[C@H](CC(C)(C)C)NC(=O)[C@H](CC(=O)O)NC2=O (some centres unmarked)', 8.00),
  ('CC(=O)N1CCC[C@]12CC=CCCCC1(CCCC=CCCCOC(=O)N3CC[C@@](C(=O)N[C@@H](Cc4ccsc4)C(=O)N[C@@H](Cc4csc5ccccc45)C(=O)N[C@@H](CCC(N)=O)C(N)=O)(C3)NC(=O)[C@H](CC(C)C)NC(=O)[C@H](Cc3ccccc3)NC(=O)[C@H](C)NC(=O)[C@H](C)NC(=O)[C@H](CNc3ncccc3C(=O)O)NC(=O)[C@H](CC(=O)O)NC1=O)NC(=O)[C@H](CC(C)(C)C)NC(=O)[C@H](CC(=O)O)NC2=O (some centres unmarked)', 7.52),
  ('CC(=O)N1CCC[C@]12CC=CCCCC1(CCCC=CCCCCCC[C@@](C)(C(=O)N[C@@H](Cc3ccccc3)C(=O)N[C@@H](Cc3csc4ccccc34)C(=O)N[C@@H](Cc3c[nH]cn3)C(N)=O)NC(=O)[C@H]([C@@H](C)O)NC(=O)[C@H](Cc3ccccc3)NC(=O)[C@H](C)NC(=O)[C@H](C)NC(=O)[C@H](CCC(=O)O)NC(=O)[C@H](CC(=O)O)NC1=O)NC(=O)[C@H](CC(C)C)NC(=O)[C@H](CC(=O)O)NC2=O (some centres unmarked) [I-618]', 6.87),
  ('CC(=O)N1CCC[C@]12CC=CCCCC1(CCCC=CCCCOC(=O)N3CC[C@@](C(=O)N[C@@H](Cc4ccccc4Cl)C(=O)N[C@@H](Cc4csc5ccccc45)C(=O)N[C@@H](CO)C(N)=O)(C3)NC(=O)[C@H](CC(C)C)NC(=O)[C@H](Cc3ccccc3)NC(=O)[C@H](C)NC(=O)[C@H](C)NC(=O)[C@H](Cc3cc(C(=O)O)cc(C(F)(F)F)c3)NC(=O)[C@H](CC(=O)O)NC1=O)NC(=O)[C@H](CC(C)(C)C)NC(=O)[C@H](CC(=O)O)NC2=O (some centres unmarked)', 6.89);

Entry CC(=O)N1CCC[C@]12CC=CCCCC1(CCCC=CCCCOC(=O)N3CC[C@@](C(=O)N[C@@H](Cc4ccccc4)C(=O)N[C@@H](Cc4csc5ccccc45)C(=O)N[C@@H](CCC(N)=O)C(N)=O)(C3)NC(=O)[C@H](CC(N)=O)NC(=O)[C@H](Cc3ccccc3)NC(=O)[C@H](C)NC(=O)[C@H](C)NC(=O)[C@H]([C@@H](C)O)NC(=O)[C@H](CC(N)=O)NC1=O)NC(=O)[C@H](CC(C)(C)C)NC(=O)[C@H](CC(=O)O)NC2=O (some centres unmarked) , system full-length beta-Catenin (Uniprot ID P35222) (Homo sapiens, UniProt P35222): what pIC50 was measured?
6.18
